B1: TRIM63 (parent)
chain: QEKKLSFIEALIQQYQEQLDKSTK

Variants of: B1
Assay: protein stability index of a GFP-peptide fusion (GPS, HEK-293T) (PSI 1-6); higher = more stable;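 further: lentivirally expressed fusions sorted by FACS into six bins by GFP to DsRed ratio, PSI derived from sequencing read proportions per bin multiplied by bin number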
Conditions: c terminus: a fixed tail appended
measured.quantity: protein stability index

> print(dat)
    var        measured.quantity  value.reported
1  A10M  protein stability index            1.96
2   Q1I  protein stability index            2.03
3  Q16C  protein stability index               2
4   K3I  protein stability index            2.01
5  K24I  protein stability index            1.95
